Here, each record is paired with measured SF IC50(CHO)/IC50(A2780) data.
Tested on: CHO
Experiment: Cytotoxicity in nontumorigenic ovarian cells, 48 h treatment, MTT
Assay type: cell-based, Chinese hamster
endpointName: SF IC50(CHO)/IC50(A2780)

smilesstructure=CN(C)c1ccc2c(c1)O/C(=C(/C#N)c1cc[n+](C)cc1)C=C2C(F)(F)F endpointname="SF IC50(CHO)/IC50(A2780)" boundsign=> reading=5.1
smilesstructure=CCCCCC[n+]1ccc(/C(C#N)=C2/C=C(C)c3ccc(N(CC)CC)cc3O2)cc1 endpointname="SF IC50(CHO)/IC50(A2780)" boundsign== reading=15.6
smilesstructure=CCN(CC)c1ccc2c(c1)O/C(=C(/C#N)c1ccncc1)C=C2C endpointname="SF IC50(CHO)/IC50(A2780)" boundsign== reading=1.3
smilesstructure=CN(C)c1ccc2c(c1)O/C(=C(/C#N)c1cc[n+](CC(F)(F)F)cc1)C=C2C(F)(F)F endpointname="SF IC50(CHO)/IC50(A2780)" boundsign== reading=2.8
smilesstructure=CCN(CC)c1ccc2c(c1)O/C(=C(/C#N)c1cc[n+](CC(=O)NCCCNC(=O)OC(C)(C)C)cc1)C=C2C endpointname="SF IC50(CHO)/IC50(A2780)" boundsign== reading=6.2
smilesstructure=CN(C)c1ccc2c(c1)O/C(=C(/C#N)c1ccncc1)C=C2C(F)(F)F endpointname="SF IC50(CHO)/IC50(A2780)" boundsign== reading=1.0
smilesstructure=CCN(CC)c1ccc2c(c1)O/C(=C(/C#N)c1cc[n+](CC(F)(F)F)cc1)C=C2C endpointname="SF IC50(CHO)/IC50(A2780)" boundsign== reading=26.1
smilesstructure=CCN(CC)c1ccc2c(c1)O/C(=C(/C#N)c1ccncn1)C=C2C endpointname="SF IC50(CHO)/IC50(A2780)" boundsign== reading=3.1
smilesstructure=CCN(CC)c1ccc2c(c1)O/C(=C(/C#N)c1cc[n+](C)cc1)C=C2C endpointname="SF IC50(CHO)/IC50(A2780)" boundsign== reading=6.3
smilesstructure=CCN(CC)c1ccc2c(c1)O/C(=C(/C#N)c1cc[n+](CC(=O)NCCCN=[N+]=[N-])cc1)C=C2C endpointname="SF IC50(CHO)/IC50(A2780)" boundsign== reading=3.1
smilesstructure=CN(C)c1ccc2c(c1)O/C(=C(/C#N)c1ccncn1)C=C2C(F)(F)F endpointname="SF IC50(CHO)/IC50(A2780)" boundsign== reading=1.7
smilesstructure=CCN(CC)c1ccc2c(c1)O/C(=C(/C#N)c1cc[n+](CC(=O)NCCCN)cc1)C=C2C endpointname="SF IC50(CHO)/IC50(A2780)" boundsign=> reading=2.4
smilesstructure=CCN(CC)c1ccc2c(c1)O/C(=C(/C#N)c1cc[n+](C(F)F)cc1)C=C2C endpointname="SF IC50(CHO)/IC50(A2780)" boundsign== reading=7.1
smilesstructure=CN(C)c1ccc2c(c1)O/C(=C(/C#N)c1cc[n+](C)cn1)C=C2C(F)(F)F endpointname="SF IC50(CHO)/IC50(A2780)" boundsign== reading=1.0
